- protocol.description: Cytotoxicity experiment (MTT method) on C8166 cells
- Assay type: cell-based
- test.settings: human
Reported CC50 at 3 days values follow for various compounds
Numeric answer only, unit µM assumed.

INSERT INTO results (compound, reported) VALUES
  ('CCc1c(CC2CCCCC2)nc(SCC(=O)c2ccc(OC(=O)C(N)Cc3c[nH]c4ccccc34)cc2)[nH]c1=O (stereo not shown) [Compound I-5]', 95.2);

Q: Quick one: CC50 at 3 days for CC(C)c1c(CC2CCCCC2)nc(SCC(=O)c2ccc(OC(=O)CN)cc2)[nH]c1=O [Compound I-17] ?
Result: 191

Q: Quick one: CC50 at 3 days for CCc1c(CC2CCCCC2)nc(SCC(=O)c2ccc(OC(=O)C(N)Cc3ccccc3)cc2)[nH]c1=O (stereo not shown) [Compound I-7] ?
Result: 90.1
